For each record, write down the corresponding soluble fraction (log2).
TEST METHOD NOTES: soluble fraction after stress (log2 fold change); higher = more stays soluble; pooled small domains, quantitative proteomics;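 note: 20 min heating vs room temperature control held 20 min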
CONDITION: stress: 75 degC
One number for each entry.

// below: answered sequences
HMQLSMLPYGFARRHGVLLVEQDEQPTLIHRAGITATVIAEVQRVAGQIDAWRLVDDARFDQQLAEVYRD	-1.33
HMDWREMTAWMAELLKRRTGDDVETWNARVRESGAHDEASLRAWLTEQGVTGYAQTLLVMERFGYPDFF	-2.89
HMVITATYTDFMDALEADEVKQVQFSSTEINYTIEKGGHVQYFKTGVVDNPQLPQILREKGVTYAAEIP	-0.512

query: Consider the sequence `HMEVSYSLPRFHKGKNPYVDFYQVDPRTLRMRRKKFLLRGVRDAVLLEQRAADLVALLTERLHSGWNAWDD` and give its measured soluble fraction (log2).
result: -2.1
